Test system: Caco-2 cells
method_summary: Caco-2 membrane permeability, improved method as used in the following Examples (96-well, 20 to 24 h preincubation)
Type: in vitro ADME
applied_conditions: human, Caco-2, 180 min
Starred links: 1 amine or outer side, 2 acyl side, 3 side chain; linkers in the order of their positions; H or OH if unused. Positions of bridges follow the written chain, without caps; N, C: chain ends. Non-standard residues stand in square brackets, D forms with d. Residues, ends and D or L forms follow the SMILES beside them. *: point of attachment. X13 = O=C([C@@H]1C[C@H](N2CCC(F)(F)CC2)CN1[*:1])[*:2]; NMeL = CN[C@@H](CC(C)C)C(=O)O; Piperidide = C1CCN(*)CC1; dAbu = CC[C@@H](N)C(=O)O; tBu = CC(C)(C)*
measured_attribute: Caco-2 (cm/s)
Write down the numeric answer in cm/s and omit the unit.

Give the measured Caco-2 of CC[C@H]1NC(=O)C[C@@H](C(=O)N2CCCCC2)NC(=O)[C@H](CC(C)C)N(C)C(=O)[C@H](Cc2ccccc2)NC(=O)[C@@H]2C[C@H](N3CCC(F)(F)CC3)CN2C(=O)[C@H]([C@@H](C)O)NC(=O)[C@H](CC(C)C)N(C)C(=O)[C@H](CC(C)C)NC(=O)[C@H](CC(C)C)N(C)C(=O)[C@H](COC(C)(C)C)NC(=O)[C@H](CC(C)C)N(C)C1=O [pd462] ([dAbu][NMeL]S(tBu)[NMeL]L[NMeL]T[X13]F[NMeL]D-Piperidide; lactam N-11) .
1.1e-06
